Target: SHP2-C SH2;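 further: peptide library displayed on the E. coli surface as eCPX fusions, selected cells deep-sequenced, score is each peptide's frequency after selection divided by its frequency in the input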
Assay: SH2 binding enrichment of the phosphorylated peptide, bacterial display (enrichment ratio); higher = better substrate or ligand; peptides without Tyr show the background
readoutName: SH2 binding enrichment

Solved cases (2 shown):
IITDFYVDMKF [MPP4_Y567_V562I_YF] ... 0.906
GLSDPYVKIHL [SYT2_Y309] ... 1.07

1. GSERRYTREGG [PTPRN2_Y139_S140T]
2. DFPMGYPSYLA [TBCK_Y153_I151M]
Prompt: Choose between 1 and 2 : whose measured SH2 binding enrichment value is numerically larger? Lab log: write the label of the selected item as the result.
Completion: 2
(2: 0.827, 1: 0.563)
